# TARGET OR SYSTEM: Dual specificity protein kinase CLK2 (Homo sapiens)
# REPORTED CONDITIONS: at 0.1 µM
# Description: GSK_PKIS: CLK2 mean inhibition at 0.1 uM [Nanosyn]
The label depends only on inhibition: class 1 if it is at least 0.9%, class 0 if it is smaller.

Use the examples below as a reference point.
| RECORD SMILES | CLASSIFICATION |
| --- | --- |
| CCc1ccc(Oc2nccc(-c3c(-c4ccc(F)cc4)ncn3C3CCNCC3)n2)cc1 | class 1 |
| COc1cc2ncn(-c3cc(OCc4cccs4)c(C(N)=O)s3)c2cc1OC | class 1 |
| FC(F)(F)c1cccc(Nc2nccc(-c3cnn4nc(-c5ccccc5)ccc34)n2)c1 | class 1 |

In: Given the entry CS(=O)(=O)CCNCc1cc(-c2cc3c(Nc4ccc(OCc5cccc(F)c5)c(Cl)c4)ncnc3s2)cs1 , answer whether its inhibition meets or surpasses 0.9%.
Out: class 1

In: Proceed to NS(=O)(=O)c1ccc(Nc2cc(-c3ccc(O)c(F)c3)n[nH]2)cc1
Out: class 1

In: One more compound: NS(=O)(=O)c1ccc(N/N=C2\C(=O)Nc3ccc(-c4cnco4)cc32)cc1
Out: class 1

In: And the next one, COc1ccc(-c2ccc3c(NC(=O)C4CC4)n[nH]c3n2)cc1 ?
Out: class 0

In: Now the compound Cc1ccc(C(=O)NC2CCC2)cc1-c1ccc(C(=O)NCC2CC2)cc1
Out: class 0

In: Now consider CCC(=O)Nc1ccc(C)c(-c2ccc(C(=O)NCC3CC3)cc2)c1 and answer again.
Out: class 0

* * *

# TARGET OR SYSTEM: Phosphatidylinositol 4,5-bisphosphate 3-kinase catalytic subunit delta isoform (Homo sapiens);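 further: reported values are mean percent inhibition of PI3K-delta activity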
# REPORTED CONDITIONS: at 1 µM
Listed here are compounds together with their documented inhibition.

Observe how each entry below is paired with its result.
| RECORD SMILES | RESULT |
| --- | --- |
| COc1cccc(-n2cnc3c(N/N=C/c4ccncc4)ncnc32)c1 | -2.3% |
| COc1cc(Nc2ncc3c(C)nc(-c4cccc(C(F)(F)F)c4)n3n2)cc(OC)c1OC | -1.04% |
| NC(=O)Cc1ccccc1Oc1nccc(-c2c(-c3ccc(F)cc3)ncn2C2CCNCC2)n1 | 2.58% |
| O=C(Nc1n[nH]c2cc(-c3ccccc3)ccc12)C1CC1 | 4.03% |

Turning to the following compound.
In: GET /values?readout=inhibition&item= COc1ccc2ncn(-c3cc(O[C@H](C)c4ccccc4Cl)c(C(N)=O)s3)c2c1
Out: 17.5%

* * *

# TARGET OR SYSTEM: BDNF/NT-3 growth factors receptor (Homo sapiens) (UniProt Q16620);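 further: each value is a mean percent inhibition of TrkB kinase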
# Sequence (Q16620 32-822 limits assumed): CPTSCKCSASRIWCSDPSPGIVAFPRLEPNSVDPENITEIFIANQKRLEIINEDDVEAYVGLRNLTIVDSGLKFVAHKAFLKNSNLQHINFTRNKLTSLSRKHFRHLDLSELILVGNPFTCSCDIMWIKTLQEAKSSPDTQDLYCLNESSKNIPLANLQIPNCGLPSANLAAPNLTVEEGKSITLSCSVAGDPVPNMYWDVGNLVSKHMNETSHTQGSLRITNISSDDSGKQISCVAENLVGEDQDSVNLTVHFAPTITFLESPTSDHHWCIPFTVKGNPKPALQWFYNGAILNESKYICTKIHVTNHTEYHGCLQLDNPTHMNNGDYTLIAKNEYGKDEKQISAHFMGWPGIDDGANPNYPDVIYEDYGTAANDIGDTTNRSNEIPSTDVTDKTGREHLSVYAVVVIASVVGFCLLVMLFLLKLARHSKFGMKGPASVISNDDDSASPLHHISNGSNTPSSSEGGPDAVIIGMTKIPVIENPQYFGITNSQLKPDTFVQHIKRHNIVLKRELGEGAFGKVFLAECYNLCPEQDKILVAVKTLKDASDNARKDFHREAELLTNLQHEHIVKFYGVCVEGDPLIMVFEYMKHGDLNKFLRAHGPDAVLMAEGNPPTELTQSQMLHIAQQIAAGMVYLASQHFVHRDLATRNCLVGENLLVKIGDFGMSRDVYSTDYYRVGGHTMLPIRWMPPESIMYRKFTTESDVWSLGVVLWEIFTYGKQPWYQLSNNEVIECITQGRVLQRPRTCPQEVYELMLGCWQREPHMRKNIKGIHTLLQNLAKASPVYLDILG
# REPORTED CONDITIONS: at 0.1 µM
QUANTITY KIND: inhibition (%)
Please respond with the number in % and leave the unit unwritten.

| RECORD SMILES | inhibition / % |
| --- | --- |
| O=C(Nc1ccc(Oc2ccc3[nH]c(NC(=O)c4ccccc4)nc3c2)cc1)Nc1cc(C(F)(F)F)ccc1F | 5.11 |
| COC(=O)Nc1nc2ccc(Sc3ccc(NC(=O)Nc4cc(C(F)(F)F)ccc4F)cc3)cc2[nH]1 | 15.1 |

// next entry
In: What inhibition value was documented for this molecule, CS(=O)(=O)CCNCc1cc(-c2cc3c(Nc4ccc(OCc5cccc(F)c5)c(Cl)c4)ncnc3s2)cs1 ?
Out: 3.47

Data provenance is ChEMBL document CHEMBL1961873.
